Values were extracted from patent US6897036B2.

Listing of recorded Fluorescent intensity in the presence of HRP (as S/B) by entry.
measuredOn: HRP (Armoracia rusticana)
Sequence (P00433 31-338): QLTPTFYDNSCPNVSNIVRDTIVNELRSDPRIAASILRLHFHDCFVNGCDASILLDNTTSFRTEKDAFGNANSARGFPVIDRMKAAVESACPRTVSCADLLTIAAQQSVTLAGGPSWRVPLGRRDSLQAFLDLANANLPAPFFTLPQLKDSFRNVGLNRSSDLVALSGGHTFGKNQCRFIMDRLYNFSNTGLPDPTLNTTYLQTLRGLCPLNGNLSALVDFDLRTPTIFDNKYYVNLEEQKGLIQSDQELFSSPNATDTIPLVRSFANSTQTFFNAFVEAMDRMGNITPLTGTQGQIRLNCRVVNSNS
method: Fluorescence signal/background measurements in the presence of HRP
Format: biochemical, horseradish
assayContext: pH 5 acidic formulation, HRP 13.8 fmol, t=15 min vs t=0
assayEndpoint: Fluorescent intensity in the presence of HRP (as S/B)

{"compound": "CCOC(=O)C1c2ccccc2N(C)c2ccccc21 [Compound 1, ethyl N-methylacridan 9-carboxylate]", "assayValue": 29.5}
{"compound": "CC1c2ccccc2N(C)c2ccccc21 [Compound 7]", "assayValue": 15.8}
{"compound": "c1ccc(CN2c3ccccc3Cc3ccccc32)cc1 [Compound 5, N-benzylacridan]", "assayValue": 5.6}
{"compound": "c1ccc(N2c3ccccc3C(C3c4ccccc4N(c4ccccc4)c4ccccc43)c3ccccc32)cc1 [Compound 11]", "assayValue": 84.0}
